// dCas9 with SSAP activity (normalized) lookup, one value per entry
# System: gene editing with dCas9
# run description: Screen of 322 new SSAP proteins, gene editing activity with dCas9 (Table 5)
# Assay type: cell-based
# test conditions: normalized

Examples from the recorded data:
• SSAP_147: SEQ ID NO: 316; Staphylococcus felis (protein, listed as Staphylococcus felis) ANANSFKEQVSNKNEVSENNNTPQQKTKGPRQQVSDLLERMAPEIQKALPSHMSAERMARIAMTAISSNTQLLECNPRSLIGALLQASQIGLEPNTALGQAYLIPYYNRNKGEFEAQLQLSYLGLIELATRTGQYKAIYAHEVYKEDEFYYEYGLHKNLVHKPVDDPKSEPIGYYAVYHLQNGGYDFSFWTRNKVELHSGQYSKAVQKGWNSPWKTDFNAMAKKTVLKDLLKYAPKSVEVSRAVGTDSKVSEISQNGEIIDVTDYSKEEE = −0.498
• SSAP_2: SEQ ID NO: 173 (protein) ATNESLKNQLTTKKETGLGSAGNTIKGLMNSPAIKKRFEEVLKQRAPQYMSSIVNLVNSDINLKKCDQMSVVASCMVAATLDLPVDKNLGYAWVVPYGNKAQFQLGYKGYVQLALRTGQYKSINVIEIHEGELIDWNPLTEELKIDFSKKESDAVIGYAGYFELLNGFKKSTYWTKEQITKHKNKFSKSDFGWKKDFDAMARKTVLRNMLSKWGILSIEMQNAYTADQGIIKNEIMETGEVKENIEYIEADFESYEDNSIEEGGANE = −1.204
• SSAP_223: SEQ ID NO: 392; Haloactinospora alba (protein, listed as Haloactinospora alba) GQSVTNAVAQRDTSPSGMVGKYRDDFAQVMPSHVNGAGWVRIAQGILRRDAKLAEAARNAPQSLMSALMDAAQQGLTPGTTEFYLVPRKRKGSLEVQGITGYQGEIELIYRAGAVASVVAEIVHEHDTFEWIPGKHERPIHEADWFGNRGTMVGAYAYAVMNSGSTSKVVILNQHDIEKARAMSDGADSSYSPWQKWPESMWLKTAAHRLAKWVPTSAEYRHEQERARARSEDTEIPASPDSDVVHAEIVEENDDEQAT = −0.948

Incoming: Which dCas9 with SSAP activity (normalized) value belongs to SSAP_69: SEQ ID NO: 238 (protein) ETIDIKQELASQAQTDSKKEVKLTKAMSIAEMIKAMMPEIKRALPSMITPERFTRIALSALNNTPELQACTPMSFISALLNAAQLGLEINSPLGHAYLIPYKNKGVLECQFQIGYLGLIALAYRNELMQTIQAQCVYENDEFLYEYGLNPKLVHRPATSDRGEPVFFYGLFKMINSGFGFCVMSKQEMDEFARTYSKGLASSFSPWKTSYNEMAKKTVIKQALKYAPIKTDFQKALSTDESIKYAISEDMTEAVNEIVSQNTEVA ?
Outgoing: −0.240

Incoming: Which dCas9 with SSAP activity (normalized) value belongs to SSAP_109: SEQ ID NO: 278; Bacillus (multispecies) (protein, listed as Bacillus sp.) TQAEKLKNDIAKQEQKNEVAQDDKPKTILDVMMQHKESFEMALPKHLDADRLIRLAVTEFRKNPMLKECTPESLLGAVMQAAQVGLEPDALGSAYLVPYYNKNKNVKEVQLQIGYKGLIELVRRSGQVTSIVANEVYENDEFDFEYGINEKLYHKPTMDADRGKLKCFYAYARFKDGGHAFTVMSVEQINQIRDKFSKSQKNGKHFGPWADHYESMAKKTVIKQLVKYMPISVEIQNQITRDETVHSSFKEEPKPIYAFEESPDIIDAPIEN ?
Outgoing: −0.640
